Measured pest or weed control at 62.5 g/ha values are reported for all entries that follow.
# Tested on: redroot pigweed (Amaranthus retroflexus)
# testName: Test G Post-Emergence Protocol
# Format: in vivo
# recordedConditions: Amaranthus retroflexus, post-emergence, 312 h, 62.5 g ai/ha, evaluated after 13 days, read-out: Pigweed, Redroot damage rating (100=total damage to plant; 0=no damage to plant)
reportedProperty: pest or weed control at 62.5 g/ha (%)

>>> reportedvalue("CN1C[C@@H](c2ccc(C(F)(F)F)cc2)[C@H](C(=O)Nc2cccc(C(F)(F)F)n2)C1=O (racemic)")
0
>>> reportedvalue("CCc1nnc(NC(=O)[C@@H]2C(=O)N(C)C[C@H]2c2ccc(C(F)(F)F)cc2)s1 (racemic)")
0
>>> reportedvalue("Cc1c(Cl)ncnc1NC(=O)[C@@H]1C(=O)N(C)C[C@H]1c1ccc(C(F)(F)F)cc1 (racemic)")
0
>>> reportedvalue("Cc1nccc(NC(=O)[C@@H]2C(=O)N(C)C[C@H]2c2ccc(C(F)(F)F)cc2)c1C (racemic)")
0
>>> reportedvalue("CN1C[C@H](c2ccc(Cl)cc2)[C@@H](C(=O)Nc2cccc(F)n2)C1=O")
20
>>> reportedvalue("CN1C[C@@H](c2ccc(C(F)(F)F)cc2)[C@H](C(=O)Nc2cccc(C(F)(F)F)c2[N+](=O)[O-])C1=O (racemic)")
0
>>> reportedvalue("CN1C[C@H](c2ccc(C(F)(F)F)cc2)[C@@H](C(=O)NC2=NOC(C)(C)C2)C1=O (racemic)")
0
>>> reportedvalue("COc1c(Cl)ccc([C@H]2CNC(=O)[C@@H]2C(=O)Nc2cccc(F)c2F)c1F (racemic)")
10
>>> reportedvalue("CN1C[C@@H](c2ccc(C(F)(F)F)cc2)[C@H](C(=O)Nc2ccc(C#N)cc2Cl)C1=O (racemic)")
0
>>> reportedvalue("CN1C[C@@H](c2ccc(C(F)(F)F)cc2)[C@H](C(=O)Nc2ccn[nH]2)C1=O (racemic)")
0
>>> reportedvalue("C=Cc1ccc([C@H]2CN(C)C(=O)[C@@H]2C(=O)Nc2ccccc2F)cc1 (racemic)")
0
>>> reportedvalue("CN1C[C@@H](c2ccc(C(F)(F)F)cc2)[C@H](C(=O)Nc2cc(C(F)(F)F)no2)C1=O (racemic)")
0
>>> reportedvalue("Cc1csc(NC(=O)[C@@H]2C(=O)N(C)C[C@H]2c2ccc(C(F)(F)F)cc2)c1C#N (racemic)")
0
>>> reportedvalue("CN1C[C@H](c2cccc3c2OC(F)(F)O3)[C@@H](C(=O)Nc2ccccc2F)C1=O (racemic)")
0
>>> reportedvalue("CN1C[C@@H](c2ccc(C(F)(F)F)nc2)[C@H](C(=O)Nc2cccc(F)n2)C1=O (racemic)")
0
>>> reportedvalue("CN1C[C@@H](c2ccc(C(F)(F)F)cc2)[C@H](C(=O)Nc2cnnc(Cl)c2Cl)C1=O (racemic)")
0
>>> reportedvalue("Cc1c(Cl)cccc1NC(=O)[C@@H]1C(=O)N(C)C[C@H]1c1ccc(C(F)(F)F)cc1 (racemic)")
40
>>> reportedvalue("CN1C[C@H](c2ccc(C(F)(F)F)cc2)[C@@H](C(=O)Nc2cccc3nsnc23)C1=O (racemic)")
0
>>> reportedvalue("CSc1nnc(NC(=O)[C@@H]2C(=O)N(C)C[C@H]2c2ccc(C(F)(F)F)cc2)[nH]1 (racemic)")
0
